- experimental-system: PI3Kγ (Homo sapiens (Human), UniProt P48736)
- Sequence (P48736 whole entry, canonical isoform): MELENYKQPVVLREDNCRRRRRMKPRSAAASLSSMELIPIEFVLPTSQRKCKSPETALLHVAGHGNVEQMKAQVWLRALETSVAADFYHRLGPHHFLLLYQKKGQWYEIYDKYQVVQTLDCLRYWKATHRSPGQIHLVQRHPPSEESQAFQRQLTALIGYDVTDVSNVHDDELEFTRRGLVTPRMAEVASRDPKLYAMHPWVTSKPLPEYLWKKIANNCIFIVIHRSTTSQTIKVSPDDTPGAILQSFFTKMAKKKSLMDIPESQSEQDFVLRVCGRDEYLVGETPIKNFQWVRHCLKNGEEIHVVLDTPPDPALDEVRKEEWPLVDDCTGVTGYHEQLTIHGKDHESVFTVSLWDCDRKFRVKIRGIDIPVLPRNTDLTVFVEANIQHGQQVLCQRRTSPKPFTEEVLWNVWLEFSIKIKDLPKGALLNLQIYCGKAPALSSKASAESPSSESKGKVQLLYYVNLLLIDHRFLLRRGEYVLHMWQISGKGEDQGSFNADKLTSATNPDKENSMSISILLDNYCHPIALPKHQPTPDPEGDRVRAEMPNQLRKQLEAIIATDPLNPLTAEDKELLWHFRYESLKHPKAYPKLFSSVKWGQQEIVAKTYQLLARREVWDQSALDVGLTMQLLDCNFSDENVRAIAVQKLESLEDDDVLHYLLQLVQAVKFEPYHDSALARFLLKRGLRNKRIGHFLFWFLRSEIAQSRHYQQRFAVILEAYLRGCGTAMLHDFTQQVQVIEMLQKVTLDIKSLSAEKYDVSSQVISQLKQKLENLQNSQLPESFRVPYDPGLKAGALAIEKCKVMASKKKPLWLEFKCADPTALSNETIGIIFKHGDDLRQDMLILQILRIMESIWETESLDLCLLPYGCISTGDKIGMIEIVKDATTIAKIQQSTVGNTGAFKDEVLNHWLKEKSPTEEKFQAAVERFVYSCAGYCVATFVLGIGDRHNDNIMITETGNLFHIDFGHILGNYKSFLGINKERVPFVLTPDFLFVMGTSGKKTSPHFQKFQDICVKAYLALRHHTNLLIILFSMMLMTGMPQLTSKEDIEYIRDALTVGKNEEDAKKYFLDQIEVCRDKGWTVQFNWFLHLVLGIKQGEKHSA
- Sequence (Q8WYR1 whole entry partner, canonical isoform): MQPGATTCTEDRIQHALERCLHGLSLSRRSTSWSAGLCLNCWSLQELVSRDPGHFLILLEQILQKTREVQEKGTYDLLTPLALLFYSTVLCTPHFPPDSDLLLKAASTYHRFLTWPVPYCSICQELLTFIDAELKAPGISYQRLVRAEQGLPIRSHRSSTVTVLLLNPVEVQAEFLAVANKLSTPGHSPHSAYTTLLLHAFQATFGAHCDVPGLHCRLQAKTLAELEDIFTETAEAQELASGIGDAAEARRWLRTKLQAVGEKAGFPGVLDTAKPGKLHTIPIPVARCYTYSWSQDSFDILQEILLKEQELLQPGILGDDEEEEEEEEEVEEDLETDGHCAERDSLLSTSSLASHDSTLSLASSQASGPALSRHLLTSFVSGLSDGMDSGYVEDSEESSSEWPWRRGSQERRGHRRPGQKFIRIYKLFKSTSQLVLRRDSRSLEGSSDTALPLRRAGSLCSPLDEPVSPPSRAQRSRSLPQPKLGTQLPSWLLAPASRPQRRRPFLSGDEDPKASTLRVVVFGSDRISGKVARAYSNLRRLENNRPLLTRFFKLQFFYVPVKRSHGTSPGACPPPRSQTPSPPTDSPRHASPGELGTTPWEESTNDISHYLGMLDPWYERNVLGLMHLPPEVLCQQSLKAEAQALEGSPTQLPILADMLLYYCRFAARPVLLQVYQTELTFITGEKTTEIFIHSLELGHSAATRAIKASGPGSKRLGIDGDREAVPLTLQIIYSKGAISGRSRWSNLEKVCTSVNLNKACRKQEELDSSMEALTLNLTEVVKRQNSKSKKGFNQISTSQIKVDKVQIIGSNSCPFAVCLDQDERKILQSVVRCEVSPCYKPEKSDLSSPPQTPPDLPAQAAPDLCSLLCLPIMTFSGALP
- assay-info: TR-FRET enzymatic assay of PI3K isoforms (PI3Kγ)
- Format: biochemical
- condition-details: TR-FRET, 2×Km ATP, 2 μM PIP2, PI3Kγ at 2 nM, incubated for 30 minutes at 25° C.; read-out: γ IC50
pIC50: −log10 of the molar value.
recorded-metric: pIC50

>>> reading("C[C@H](Nc1ncnc(N)c1C#N)c1nc2cccc(Cl)c2c(=O)n1-c1cccc(NC(=O)Nc2ccccc2)c1")
6.00

(A) C[C@H](Nc1ncnc(N)c1C#N)c1nc2cccc(Cl)c2c(=O)n1-c1cccc(NC(=O)NCCF)c1
(B) C[C@H](Nc1ncnc(N)c1C#N)c1nc2cccc(Cl)c2c(=O)n1-c1cccc(NC(=O)NC2CC2)c1
(C) C[C@H](Nc1ncnc(N)c1C#N)c1nc2cccc(Cl)c2c(=O)n1-c1cccc(NC(=O)Nc2ccc(F)cc2F)c1
Req: Please list the entries, largest pIC50 first. A ranking is expressed here by listing the labels in the requested order.
Resp: C, B, A
